Source: patent US20190161551A1

experimental-system: T1, mouse TrkB.hFc (mouse)
T1 construct: also called mTrkB.hFc; mTrkB-hFc
T1 sequence (chain, as listed by the source limits assumed): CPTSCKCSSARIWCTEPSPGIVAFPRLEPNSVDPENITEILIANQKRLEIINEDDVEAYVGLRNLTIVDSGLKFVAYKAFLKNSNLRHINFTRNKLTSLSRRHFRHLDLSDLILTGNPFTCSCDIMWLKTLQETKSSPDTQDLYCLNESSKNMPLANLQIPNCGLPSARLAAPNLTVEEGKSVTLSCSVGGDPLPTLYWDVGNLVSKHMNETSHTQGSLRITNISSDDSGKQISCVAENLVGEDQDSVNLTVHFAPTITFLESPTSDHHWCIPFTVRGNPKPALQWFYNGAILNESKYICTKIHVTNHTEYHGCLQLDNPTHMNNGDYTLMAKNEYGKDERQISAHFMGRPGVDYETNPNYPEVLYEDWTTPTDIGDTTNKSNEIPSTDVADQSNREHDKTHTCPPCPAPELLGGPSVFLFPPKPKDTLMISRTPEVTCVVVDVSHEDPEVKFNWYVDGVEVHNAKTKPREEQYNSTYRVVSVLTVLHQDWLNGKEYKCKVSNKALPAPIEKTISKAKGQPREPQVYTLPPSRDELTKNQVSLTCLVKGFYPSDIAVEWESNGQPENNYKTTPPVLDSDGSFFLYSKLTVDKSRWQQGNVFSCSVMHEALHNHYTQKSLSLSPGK
measurement-notes: BLI Octet, captured mTrkB.hFc, 300 nM mAb (NT-4 run)
Procedure: Blocking of BDNF or NT-4 from binding to TrkB by anti-human TrkB or anti-mouse TrkB antibodies was evaluated using a real-time bio-layer interferometry (BLI) based Octet HTX instrument. The entire study was performed in 10 mM HEPES pH 7.4, 300 mM NaCl, 3 mM EDTA, 1 mg/mL BSA, 0.02% NaN3 and 0.05% v/v Surfactant Tween-20 (HBS-EBT running buffer) at 25° C. […] Binding of BDNF, hNT-4, or mNT-4 to the complex of TrkB and different TrkB mAbs was determined using Scrubber 2.0c analysis software.
reported-property: mAb Binding (nm)
# number only, unit nm dropped from output

M2aM14178N (antibody, mouse IgG2a, V domains shown, Anti-mouse TrkB antibody from hybridoma, mouse IgG2a Fc; also called surrogate anti-mouse TrkB antibody) VH: EVQLVESGGGLVKPGGSLKLSCTASGFTFSSYAMSWVRQTPEKRLEWVANISDGGTYTYYPDNIKGRFTISRDNAKNNLYLQMSHLESEDTAMYYCIRGDVYYVRFAYWGQGTLVTVSA VL: QAVVTQESALTTSPGETVTLTCRSSTGAVTSSNHANWVQEKPDHLFTGLIGGTNNRAPGVPARFSGSLIGDKAALTITGAQTEDEAIYFCALWHSNHWVFGGGTKLTVLG; 0.47
M2aM14179N (antibody, mouse IgG2a, kappa, V domains shown, Anti-mouse TrkB antibody from hybridoma, mouse IgG2a Fc; also called surrogate anti-mouse TrkB antibody) VH: EVQLQQSGPELVKPGASVKISCKASGYTLTDYYMNWVKQSHGKSLEWIGDINPNNGGTSYNQKFKGKATLTVDKSSSTAYMELRSLTSEDSAVYYCARGAYYSNYFDYWGQGTTLTVSS VL: DIVMSQSPSSLAVSAGEKVTMSCKSSQSLLNSRTRKNYLAWYQQKPGQSPKLLIYWASTRESGVPDRFTGSGSGTDFTLTISSVQAEDLAVYYCKQSYILFTFGSGTQLEIKR; 0.41
M2aM14173N (antibody, mouse IgG2a, kappa, V domains shown, Anti-mouse TrkB antibody from hybridoma, mouse IgG2a Fc; also called surrogate anti-mouse TrkB antibody) VH: NVSLVESGGGSVKPGGSLQLSCAASGFTFSSSAMSWIRQTPEMRLEWVATISDRGSYTYYPDSVEGRFTISRDNAKNILYLQMSHLMSEDTAMYYCARGKGEKAYYTAFFAYWGQGSLVTVSA VL: DIQMTQSPASLSASVGETVTITCRASENIYSYLAWYQQKPGKSPHLLVHNAETLAEGVPSRFSGSGSGPQFSLKINSLQPGDSGTYYCQHHYSSPWTFGGGTKLEIKR; 0.413

// next entry
So what's the measured mAb Binding (nm) for this one? H1M8037C (antibody, mouse IgG1, kappa, V domains shown, captured by anti-mFc in SPR; also called Comparator; comparator anti-TrkB monoclonal antibody) VH: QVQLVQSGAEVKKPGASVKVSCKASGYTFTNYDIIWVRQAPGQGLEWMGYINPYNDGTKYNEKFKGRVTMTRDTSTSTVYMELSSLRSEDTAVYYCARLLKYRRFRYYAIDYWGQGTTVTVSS VL: DIQMTQSPSSLSASVGDRVTITCRTSENVYSNLAWYQQKPGKAPKLLIYAASNLQSGVPSRFSGSGSGTDYTFTISSLQPEDIATYYCQHFWGSPFTFGQGTKLEIKR 0.4
